# Test system: SNB-19 CNS
# protocol_summary: NCI-60 one-dose screen, 48 h
# condition: 10 µM unless noted
The panel holds about 83,000 compounds, 20% with a hit somewhere; the sample as a whole holds those more often. Activity calls are given as the source filed them. How the source made its calls: active means growth percent below 10; inactive means the rest.
Possible outcomes: class 1 = active, class 0 = inactive

compound=NC1=Nc2cc(OCCCCN3Cc4ccccc4C3)c(OCC3CC3)cc2C12CCCC2 assayed_target="SNB-19 CNS" discrete_label="class 0"
compound="CN(Cc1ccccc1)c1nc(Cl)c(C2CC(c3ccccc3)=NN2c2ccccc2)s1 (stereo unspecified)" assayed_target="SNB-19 CNS" discrete_label="class 0"
compound=CCN(CC)CCCN1C(=O)c2c(c(C)c3c(oc4ccc(O)cc43)c2C)C1=O assayed_target="SNB-19 CNS" discrete_label="class 0"
compound=O=S(=O)(Oc1ccc(Br)cc1)c1ccc(Cl)cc1 assayed_target="SNB-19 CNS" discrete_label="class 0"
compound=Fc1ccc2[nH]cc(-c3nc(-c4c[nH]c5ccncc45)cs3)c2c1 assayed_target="SNB-19 CNS" discrete_label="class 1"
compound=Cc1nc2c(=O)nc3s/c(=C\c4ccco4)c(=O)n3c2nc1C assayed_target="SNB-19 CNS" discrete_label="class 0"
compound=N#C/C(=C\C=C\c1ccc(-c2cc(Cl)ccc2Cl)o1)c1nc2ccccc2s1 assayed_target="SNB-19 CNS" discrete_label="class 0"
compound=CN(Cc1cc(Br)cc(Br)c1O)Cc1cc(Br)cc(Br)c1O assayed_target="SNB-19 CNS" discrete_label="class 0"
compound=O=C(Nc1ccc(Br)cc1)C1=NCCCCN1 assayed_target="SNB-19 CNS" discrete_label="class 0"
compound=Cc1ccc(/C=C/C(=O)Nc2ncc(Cc3ccc(F)cc3)s2)o1 assayed_target="SNB-19 CNS" discrete_label="class 0"
compound="CCN1C(=O)N(CC)C2C1NN=c1s/c(=C\\c3ccc(C(F)(F)F)cc3)c(=O)n12 (stereo unspecified)" assayed_target="SNB-19 CNS" discrete_label="class 0"

---

Parameter: growth. Scope: all listed entries.
# Test system: TK-10 renal
# protocol_summary: NCI-60 one-dose screen, 48 h (100 = growth as untreated, 0 = no growth, -100 = all killed)
# condition: 10 µM unless noted
This is part of a sample that, as a whole, favours compounds with a hit. Of some 83,000 tested, about 20% had one in any assay.
measured_attribute: growth (%)

smiles_entry=COc1ccc(C(=S)N2CCN(c3ccc(Cl)cc3)CC2)cc1 quantitative_readout=101
smiles_entry=Cc1ccc(CNc2ccc3nc(CCC(C)C)[nH]c3c2)cc1 quantitative_readout=113
smiles_entry=O=C(Nc1ccccc1O)c1ccc(CNC(=O)c2ccsc2Nc2ccnc(C(F)(F)F)c2)cc1 quantitative_readout=-13.7
smiles_entry=O=c1c2ccccc2c(=O)c2c1sc1c(=O)c3ccc(O)cc3c(=O)c12 quantitative_readout=-95.4
smiles_entry=CCN1CCN(CC(=O)Nc2nc3ccc(NCc4ccc(F)cc4)cc3s2)CC1 quantitative_readout=105

---

# Tested on: NCI-H23 lung
# protocol_summary: NCI-60 one-dose screen, 48 h
# condition: 10 µM unless noted
About 83,000 compounds went through this panel and 20% of them were active in at least one assay; those are over-represented in the sample as a whole. Active and inactive are the calls of the source. The calls were made as follows: active = growth percent below 10; inactive = the rest.
Possible outcomes: active, inactive

compound=O=C1/C=C/[C@@H](O)[C@@H]2C[C@@H](O)C[C@H]2/C=C/CCC[C@H](CCO)O1 assayed_target="NCI-H23 lung" discrete_label=inactive
compound=C=C1C(=O)O[C@H]2[C@H]1CC/C(COC(=O)/C=C\C(=O)NCc1ccc(Cn3c(=O)sn(CCCCC)c3=O)cc1)=C\CC[C@@]1(C)O[C@@H]21 assayed_target="NCI-H23 lung" discrete_label=inactive
compound=CC(C)(C)n1cc(-c2ccnc(NCCCNS(=O)(=O)c3cccc4ccccc34)c2)c(-c2cccc(F)c2)n1 assayed_target="NCI-H23 lung" discrete_label=inactive
compound="O=C(NC(Cc1nnc2n(Cc3ccccc3)c(=O)c3c4c(sc3n12)CCCC4)c1ccccc1)c1ccccc1 (stereo not drawn)" assayed_target="NCI-H23 lung" discrete_label=inactive
compound=CC(C)(C)n1cc(-c2ccnc(NCCNS(=O)(=O)c3ccc(O)cc3)c2)c(-c2cccc(O)c2)n1 assayed_target="NCI-H23 lung" discrete_label=inactive
compound=CCn1c(-c2cc3c([nH]c4ccccc43)c(-c3cccc(O)c3)n2)n[nH]c1=S assayed_target="NCI-H23 lung" discrete_label=inactive
compound=O=C(Cc1cccc(OC(F)(F)F)c1)Nc1ccc(CCCCc2nnc(NC(=O)Cc3ccccn3)s2)nn1 assayed_target="NCI-H23 lung" discrete_label=inactive
compound=COC(=O)CCC/C=C\C[C@H]1C=CC(=O)/C1=C/C[C@@H](O)C/C=C\CC(F)(F)F assayed_target="NCI-H23 lung" discrete_label=active

---

Parameter: growth. Scope: all listed entries.
# System: ACHN renal
# protocol_summary: NCI-60 one-dose screen, 48 h (100 = growth as untreated, 0 = no growth, -100 = all killed)
# condition: 10 µM unless noted
The panel holds about 83,000 compounds, 20% with a hit somewhere; the sample as a whole holds those more often.
measured_attribute: growth (%)

smiles_entry=CCn1c(-c2cc3c([nH]c4ccccc43)c(-c3cccc(O)c3)n2)n[nH]c1=S assayed_target="ACHN renal" measured_attribute=growth quantitative_readout=61.1
smiles_entry=COc1cccc(Nc2ncnc3cc(NC(=O)CCl)ccc23)c1 assayed_target="ACHN renal" measured_attribute=growth quantitative_readout=-97.6
smiles_entry=O=C(CC(=O)Nc1cccc(C(=O)O)c1)Nc1cccc(C(=O)O)c1 assayed_target="ACHN renal" measured_attribute=growth quantitative_readout=91.6
smiles_entry=CN1CCN(CC(=O)Nc2ccc3ncnc(Nc4ccc(Oc5cccc(C(F)(F)F)c5)c(Cl)c4)c3c2)CC1 assayed_target="ACHN renal" measured_attribute=growth quantitative_readout=-63.2
smiles_entry=O=C(c1c[nH]c2ccccc12)c1n[nH]c(=S)n1-c1cccc(Br)c1 assayed_target="ACHN renal" measured_attribute=growth quantitative_readout=100
smiles_entry=COc1ccc(/C=C/C(=O)c2cc(OC)c(OC)c(OC)c2)cc1OCC(=O)Nc1nc2ccc(OC(F)(F)F)cc2s1 assayed_target="ACHN renal" measured_attribute=growth quantitative_readout=-1.17
smiles_entry=CC1(C)N=C(N)N=C(N)N1c1ccc(CCCCc2ccccc2)c(Cl)c1 assayed_target="ACHN renal" measured_attribute=growth quantitative_readout=18.8
smiles_entry=O=C(/C=C(O)/C=C/c1cccc2[nH]ccc12)/C=C/c1cccc2[nH]ccc12 assayed_target="ACHN renal" measured_attribute=growth quantitative_readout=84.4
smiles_entry=C/C(=N\O)[C@@H]1CC[C@]2(CO)CC[C@]3(C)[C@H](CC[C@@H]4[C@@]5(C)CCCNC(C)(C)[C@@H]5CC[C@]43C)[C@@H]12 assayed_target="ACHN renal" measured_attribute=growth quantitative_readout=98.6

---

# System: OVCAR-4 ovarian
# protocol_summary: NCI-60 one-dose screen, 48 h
# condition: 10 µM unless noted
Compounds without any hit were thinned out: in the full panel of roughly 83,000, 20% have a hit. The source made the active and inactive calls. How the source made its calls: active means growth percent below 10; inactive means the rest.
Possible outcomes: active, inactive

molecule=O=C(Nc1cc(Cl)ccc1O)c1cccc(Nc2ccnc(C(F)(F)F)c2)c1 discrete_label=inactive
molecule=C=C1C(=O)O[C@H]2[C@H]1CC/C(COC(=O)NCc1ccc(Cn3c(=O)sn(-c4ccc(C#N)cc4)c3=O)cc1)=C\CC[C@@]1(C)O[C@@H]21 discrete_label=inactive
molecule="N#Cc1c(-c2ccccc2)nc(SCC(O)CN2CCOCC2)nc1N1CCOCC1 (stereo not drawn)" discrete_label=inactive
molecule=COc1ccc(/C=C/c2c(C(=O)/C=C/c3ccccc3)c(C)nc3ccccc23)cc1 discrete_label=inactive
molecule=O=C(Oc1ccc(CCl)cc1)c1ccccc1 discrete_label=active
molecule="CNC(C)[C@H]1CCC2C3CC=C4C(=O)[C@@H](NC(=O)C=C(C)C)CC[C@]4(C)C3CC[C@@]21C (stereo partly drawn)" discrete_label=active
molecule=C/C(=N\O)c1ccc(NC(=O)CSc2nnc(-c3cc(-c4ccc(S(N)(=O)=O)cc4)nc4ccccc34)n2-c2ccccc2)cc1 discrete_label=inactive
molecule=COc1cccc(/C=N/NC(=O)c2ccccc2N2CCCC2)c1O discrete_label=inactive
molecule=CNC1=CC(=O)c2c(C(=O)OC)c(C)[n+]([O-])c(C)c2C1=O discrete_label=inactive
molecule=CC[C@]12C=CCN3CC[C@@]4(c5ccc(OC)cc5N(C)[C@H]4[C@@](O)(C(=O)OC)[C@@H]1OC(=O)CCC[P+](c1ccccc1)(c1ccccc1)c1ccccc1)[C@@H]32 discrete_label=active
molecule="COc1ccc(CCN(CC(=O)N(CC(N)=O)C2CCC[C@@H]2OCc2ccccc2)C(=O)CN(C(=O)CN(CCc2ccc(Cl)cc2)C(=O)CN(C(=O)CN(C)Cc2ccccc2F)[C@H](C)C2CCCCC2)[C@H](C)C2CCCCC2)cc1OC (stereo partly drawn)" discrete_label=inactive
molecule=COc1ccc(-c2nc3c(N)c(CO)cnc3s2)cc1 discrete_label=inactive
molecule=CC(=O)OC[C@]12CC[C@@H]([C@@H](C)c3nnc(-c4ccncc4)o3)[C@@H]1[C@H]1CC[C@@H]3[C@@]4(C)CC[C@H](OC(C)=O)C(C)(C)[C@@H]4CC[C@@]3(C)[C@]1(C)CC2 discrete_label=inactive
molecule=CN1CCN(CCOc2ccc(-c3cnc4c(-c5cccc(F)c5F)cnn4c3)cc2)CC1 discrete_label=active
molecule="C#CC#CC#CC#CC#CC#CC#CC#CCC1OC[C@H](COC(=O)O[C@@H](C(=O)O[C@H]2C[C@@]3(O)[C@@H](OC(=O)c4ccccc4)[C@@H]4[C@]5(OC(C)=O)CO[C@@H]5C[C@H](O)[C@@]4(C)C(=O)[C@H](OC(C)=O)C(=C2C)C3(C)C)[C@@H](NC(=O)c2ccccc2)c2ccccc2)O1 (stereo partly drawn)" discrete_label=inactive
molecule=CCOc1cccc(/C=N/NC(=O)c2cccc(Nc3ccnc(C(F)(F)F)c3)c2)c1O discrete_label=inactive
molecule="N#Cc1cccc(C2C3=C(COC3=O)N(CCO)c3cc4c(cc32)CCC4)c1 (stereo not drawn)" discrete_label=inactive
molecule=CC1(C)CC[C@]2(CO)CC[C@]3(C)[C@H](CC[C@@H]4[C@@]5(C)CCCNC(C)(C)[C@@H]5CC[C@]43C)[C@H]2[C@H]1O discrete_label=inactive
molecule=CN1CCN(C(=O)C(C)(C)c2ccc(C(=O)Nc3cn4cc(-c5ccncc5)ccc4n3)cc2)CC1 discrete_label=active
molecule=CCN(CC)c1ccc(CNc2cc(C)nc3ccccc23)cc1 discrete_label=inactive
molecule=COc1ccc(C(=O)Cn2c(C(=O)c3ccc(OC)cc3)nc3ccccc32)cc1 discrete_label=inactive
molecule=CO[C@H]1CC(=O)n2c3ccccc3c3c4c(c5c6ccccc6n1c5c32)C(=O)NC4=O discrete_label=inactive
molecule=COc1cc(-c2nc3sccn3c2-c2ccnc(NCCNS(=O)(=O)c3ccc(Cl)cc3)n2)ccc1F discrete_label=inactive
molecule="CC(C)=CCNc1ncnc2c1ncn2C1OC(CO)C(O)C1O (stereo not drawn)" discrete_label=active
molecule=N#C/C(=C\c1ccc(-c2cccc(C(F)(F)F)c2)o1)c1ccccc1 discrete_label=inactive
molecule=O=[N+]([O-])c1cc(NS(=O)(=O)c2ccccc2)ccc1NS(=O)(=O)c1ccccc1 discrete_label=inactive
molecule="CCCCCN(CCCCC)CC(O)c1cc(C)c2ccc3cc(C(C)C)ccc3c2c1 (stereo not drawn)" discrete_label=inactive
molecule=c1ccc2c(c1)CCCc1nnc3nc4ccccc4n3c1-2 discrete_label=inactive
molecule=C=CCC(CCCC)(C(=O)OCC)C(=O)OCC discrete_label=inactive
molecule=CCN(CC)CCN1C(=O)c2cccc3c(/C=C/CN4C(=O)c5cccc6cccc(c56)C4=O)ccc(c23)C1=O discrete_label=inactive
molecule=Cc1ccc(/C=C/C(=O)c2ccc(-n3cc(CN4CCN(c5cc6c(cc5F)c(=O)c(C(=O)O)cn6C5CC5)CC4)nn3)cc2)cc1 discrete_label=inactive
molecule=O=C1/C(=C2\SC(=S)N(C3CC3)C2=O)SC(=S)N1C1CC1 discrete_label=inactive
molecule=O=c1nc(-c2ccccc2)c2cc(-c3ccc(C(F)(F)F)nc3)ccc2[nH]1 discrete_label=inactive

Numbers sourced from PubChem BioAssay (NCI).
